Target: UniProtKB P11362
Experiment: FGFR Enzymatic Assay (FRET peptide phosphorylation), FGFR1
Settings: FGFR1, wild-type un-phosphorylated FGFR1; pre-incubated for 4 hours
readout-label: IC50

Form field: IC50 recorded for COC(=O)N1CCC(c2ccc(-c3n[nH]c4cc(OC)c(-c5cccc6c5CCC6C#N)nc34)cn2)CC1 (stereo not shown) with UniProtKB P11362 (enter value)
40 to 100 nM

Similarly, `COc1cc2[nH]nc(-c3ccc(N4CCN(C)[C@H](C)C4)nc3)c2nc1-c1cccc(C)c1C` ?
40 to 100 nM

Similarly, `COc1cc2[nH]nc(-c3cnn(Cc4ccncc4)c3)c2nc1-c1cccc2c1CCC2` ?
40 to 100 nM

Similarly, `COc1cc2[nH]nc(-c3cnn(C4CC4)c3)c2nc1-c1cccc(C)c1C` ?
> 100 nM

Similarly, `COc1cc2[nH]nc(-c3ccc(N4CCN5C[C@H](O)C[C@H]5C4)nc3)c2nc1-c1cccc2c1CCCO2` ?
> 100 nM

Similarly, `COc1cc2[nH]nc(-c3cnn(CCC#N)c3)c2nc1-c1cccc2c1CCC2` ?
> 100 nM

Similarly, `COc1cc2[nH]nc(-c3cnn(C4CN(C(C)=O)C4)c3)c2nc1-c1cccc2c1CCC2` ?
40 to 100 nM

Similarly, `COCCN1CCN(c2ccc(-c3n[nH]c4cc(OC)c(-c5cccc(CC#N)c5C)nc34)cn2)CC1` ?
40 to 100 nM

Similarly, COc1cc2[nH]nc(-c3ccc(OC4CCOCC4)nc3)c2nc1-c1cccc2c1CC(O)C2 (stereo not shown) ?
40 to 100 nM

Similarly, COc1cc2[nH]nc(-c3cnn(C)c3)c2nc1-c1cccc2c1CCC2CO (single isomer, unassigned) ?
40 to 100 nM

Similarly, `COc1cc2[nH]nc(-c3cnn(C)c3)c2nc1-c1cccc2c1CCC2` ?
40 to 100 nM

Similarly, `COc1cc2[nH]nc(-c3ccc(N4CCS(=N)(=O)CC4)nc3)c2nc1-c1cccc(C)c1C` ?
> 100 nM

Similarly, `COc1cc2[nH]nc(-c3ccc(N4C[C@@H]5C[C@H]4CN5C)nc3)c2nc1-c1cccc(C)c1C` ?
40 to 100 nM

Similarly, `COc1cc2[nH]nc(-c3ccc(N4CCCC4)nc3)c2nc1-c1cccc2c1CCC2` ?
> 100 nM

Similarly, `COc1cc2[nH]nc(-c3ccc(N4CCC5(CC4)CNC(=O)O5)nc3)c2nc1-c1cccc(C)c1C` ?
> 100 nM

Similarly, `COc1cc2[nH]nc(-c3ccc(N4CCN5C[C@H](O)C[C@H]5C4)nc3)c2nc1-c1cccc(C)c1F` ?
> 100 nM

###

Consider the following compounds; for each one, report its IC50.
Target: wild-type un-phosphorylated FGFR1 (Homo sapiens)
Experiment: FGFR Enzymatic Assay (FRET peptide phosphorylation), FGFR1
Settings: FGFR1, wild-type un-phosphorylated FGFR1; pre-incubated for 4 hours

Consider the compound shown here: `COc1cc2[nH]nc(-c3ccc(CN4CCC(O)CC4)nc3)c2nc1-c1cccc2c1CCC2` What is its recorded IC50?
40 to 100 nM

Similarly, `COC(=O)N1CC(n2cc(-c3n[nH]c4cc(OC)c(-c5cccc(C)c5C)nc34)cn2)C1` ?
> 100 nM

Similarly, `COc1cc2[nH]nc(-c3cnn(-c4ccncc4)c3)c2nc1-c1cccc2c1CCC2` ?
> 100 nM

Similarly, `COc1cc2[nH]nc(-c3ccc(N4CCN(CCO)CC4)nc3)c2nc1-c1cccc(CC#N)c1C` ?
> 100 nM

Similarly, `COc1cc2[nH]nc(-c3cnn(C4CCN(C(C)=O)CC4)c3)c2nc1-c1cccc(C)c1C` ?
> 100 nM

Similarly, `Cn1cc(-c2n[nH]c3cc(CO)c(-c4cccc5c4CCC5)nc23)cn1` ?
40 to 100 nM

Similarly, COc1cc2[nH]nc(-c3ccc(OC4CCOC4)nc3)c2nc1-c1cccc2c1CC(O)C2 (single isomer, unassigned) ?
40 to 100 nM

Similarly, `COc1cc2[nH]nc(-c3cnn([C@H]4CC[C@@H](NC(C)=O)CC4)c3)c2nc1-c1cccc2c1CCC2` ?
40 to 100 nM

###

Target: wild-type un-phosphorylated FGFR4 (Homo sapiens)
Sequence (P22455 22-802): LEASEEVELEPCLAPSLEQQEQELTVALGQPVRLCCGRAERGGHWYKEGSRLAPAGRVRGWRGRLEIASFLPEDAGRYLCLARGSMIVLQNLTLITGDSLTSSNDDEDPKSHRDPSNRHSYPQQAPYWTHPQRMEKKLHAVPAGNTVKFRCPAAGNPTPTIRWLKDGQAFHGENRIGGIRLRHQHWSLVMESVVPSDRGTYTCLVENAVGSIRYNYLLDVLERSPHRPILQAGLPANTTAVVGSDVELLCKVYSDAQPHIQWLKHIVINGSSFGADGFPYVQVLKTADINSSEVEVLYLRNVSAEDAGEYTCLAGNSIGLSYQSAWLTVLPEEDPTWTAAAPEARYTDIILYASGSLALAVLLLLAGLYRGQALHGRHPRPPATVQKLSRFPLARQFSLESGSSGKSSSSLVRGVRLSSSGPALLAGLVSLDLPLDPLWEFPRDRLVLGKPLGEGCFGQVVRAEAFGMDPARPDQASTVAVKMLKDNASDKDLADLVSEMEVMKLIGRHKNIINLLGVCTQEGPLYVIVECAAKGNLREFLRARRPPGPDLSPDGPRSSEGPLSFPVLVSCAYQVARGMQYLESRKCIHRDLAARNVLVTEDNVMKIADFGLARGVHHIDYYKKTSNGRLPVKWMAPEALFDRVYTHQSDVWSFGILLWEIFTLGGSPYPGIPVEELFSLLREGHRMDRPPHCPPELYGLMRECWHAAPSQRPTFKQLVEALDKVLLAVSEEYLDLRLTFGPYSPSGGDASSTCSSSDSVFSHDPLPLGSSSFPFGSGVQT
Assay: FGFR Enzymatic Assay (FRET peptide phosphorylation), FGFR4
pIC50: −log10 of the molar value.
readout-label: pIC50

Form field: pIC50 recorded for `COc1cc2[nH]nc(-c3cnn(C4CN(S(=O)(=O)CCN(C)C)C4)c3)c2nc1-c1cccc2c1CCC2` with wild-type un-phosphorylated FGFR4 (Homo sapiens) (enter value)
7.00 to 7.40

Similarly, `CCN1CC[C@H]1C(=O)N1CC(n2cc(-c3n[nH]c4cc(OC)c(-c5cccc6c5CCC6)nc34)cn2)C1` ?
7.00 to 7.40

Similarly, COc1cc2[nH]nc(-c3cnn(C4CC(C#N)C4)c3)c2nc1-c1cccc2c1CCC2 (stereo not drawn) ?
< 7.00

###

Consider the following compounds; for each one, report its IC50.
Target: wild-type un-phosphorylated FGFR1 (Homo sapiens, UniProt P11362)
Sequence (P11362 22-822): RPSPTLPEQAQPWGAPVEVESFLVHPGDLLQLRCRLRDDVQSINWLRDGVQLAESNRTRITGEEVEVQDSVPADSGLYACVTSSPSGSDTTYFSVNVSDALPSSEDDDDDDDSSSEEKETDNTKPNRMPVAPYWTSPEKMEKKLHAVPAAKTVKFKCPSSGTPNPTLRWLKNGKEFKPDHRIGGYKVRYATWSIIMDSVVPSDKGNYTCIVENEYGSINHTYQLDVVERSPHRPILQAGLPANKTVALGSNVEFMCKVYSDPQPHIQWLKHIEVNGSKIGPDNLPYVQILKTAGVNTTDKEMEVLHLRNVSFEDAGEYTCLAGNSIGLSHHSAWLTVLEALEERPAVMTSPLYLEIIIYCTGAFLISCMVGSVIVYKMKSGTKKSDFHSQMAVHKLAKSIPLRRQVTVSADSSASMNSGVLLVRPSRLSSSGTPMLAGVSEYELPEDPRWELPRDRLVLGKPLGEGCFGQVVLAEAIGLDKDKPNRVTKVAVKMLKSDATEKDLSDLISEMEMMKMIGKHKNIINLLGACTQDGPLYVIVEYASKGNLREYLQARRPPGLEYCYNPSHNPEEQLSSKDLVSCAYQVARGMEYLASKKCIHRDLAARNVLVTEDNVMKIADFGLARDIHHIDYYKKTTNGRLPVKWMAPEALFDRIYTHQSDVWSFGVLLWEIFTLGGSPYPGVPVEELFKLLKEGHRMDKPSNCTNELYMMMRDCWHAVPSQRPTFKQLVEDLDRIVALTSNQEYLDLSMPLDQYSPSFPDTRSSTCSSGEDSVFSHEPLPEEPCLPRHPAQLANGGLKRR
Assay: FGFR Enzymatic Assay (FRET peptide phosphorylation), FGFR1
Details: FGFR1, wild-type un-phosphorylated FGFR1; pre-incubated for 4 hours

Form field: IC50 recorded for `COc1cc2[nH]nc(-c3cnn(C4CN(S(C)(=O)=O)C4)c3)c2nc1-c1cccc2c1CCC2` with wild-type un-phosphorylated FGFR1 (Homo sapiens, UniProt P11362) (enter value)
> 100 nM

Similarly, `CCN1CCN(c2ccc(-c3n[nH]c4cc(OC)c(-c5cccc(C)c5C)nc34)cn2)CC1` ?
40 to 100 nM

Similarly, `COc1cc2[nH]nc(-c3cnn(CCN4CCOCC4)c3)c2nc1-c1cccc2c1CCC2` ?
40 to 100 nM

Similarly, `COc1cc2[nH]nc(-c3ccc(C4CCN(C(=O)[C@H](C)O)CC4)nc3)c2nc1-c1cccc(C)c1C` ?
> 100 nM

Similarly, `CCN1CC(n2cc(-c3n[nH]c4cc(OC)c(-c5cccc6c5CCC6)nc34)cn2)C1` ?
40 to 100 nM

###

Molecular target: UniProt P21802
Sequence (P21802 22-821): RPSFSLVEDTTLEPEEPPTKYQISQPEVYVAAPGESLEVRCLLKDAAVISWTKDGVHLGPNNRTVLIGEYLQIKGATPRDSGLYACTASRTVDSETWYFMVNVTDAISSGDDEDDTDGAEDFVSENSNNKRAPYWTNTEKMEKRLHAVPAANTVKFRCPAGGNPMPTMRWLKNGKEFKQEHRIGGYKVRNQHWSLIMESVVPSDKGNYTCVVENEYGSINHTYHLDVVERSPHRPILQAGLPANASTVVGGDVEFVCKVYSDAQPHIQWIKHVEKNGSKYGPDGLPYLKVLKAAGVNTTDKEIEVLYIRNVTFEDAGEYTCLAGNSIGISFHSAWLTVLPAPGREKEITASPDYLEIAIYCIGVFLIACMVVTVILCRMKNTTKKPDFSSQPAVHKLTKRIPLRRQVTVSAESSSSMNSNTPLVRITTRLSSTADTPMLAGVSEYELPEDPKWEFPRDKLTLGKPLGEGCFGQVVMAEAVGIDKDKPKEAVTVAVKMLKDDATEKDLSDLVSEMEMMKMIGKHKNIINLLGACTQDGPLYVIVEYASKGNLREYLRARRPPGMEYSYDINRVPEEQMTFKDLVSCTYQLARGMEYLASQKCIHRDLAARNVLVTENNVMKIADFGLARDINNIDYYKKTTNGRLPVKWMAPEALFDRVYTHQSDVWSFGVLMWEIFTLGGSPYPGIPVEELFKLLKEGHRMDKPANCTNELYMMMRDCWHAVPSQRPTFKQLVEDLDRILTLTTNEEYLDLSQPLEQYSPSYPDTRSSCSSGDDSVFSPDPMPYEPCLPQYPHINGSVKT
Experiment: FGFR Enzymatic Assay (FRET peptide phosphorylation), FGFR2
Conditions: read-out: FGFR2; wild-type un-phosphorylated FGFR2; pre-incubated for 4 hours
Consider the following compounds; for each one, report its IC50.

Consider the compound shown here: COc1cc2[nH]nc(-c3ccc(C45CC4CN(C(=O)CO)C5)nc3)c2nc1-c1cccc2c1CCC2 (single isomer, unassigned) [Example 191C] What is its recorded IC50?
< 6 nM

Similarly, COc1cc2[nH]nc(-c3ccc(C4CCN(C(=O)CO)C4)nc3)c2nc1-c1cccc2c1CCC2 (single isomer, unassigned) [Example 102] ?
< 6 nM

Similarly, COc1cc2[nH]nc(-c3ccc(C45CC4CN(CCO)C5)nc3)c2nc1-c1cccc2c1CCC2 (single isomer, unassigned) [Example 194C] ?
< 6 nM

###

Consider the following compounds; for each one, report its pIC50.
Molecular target: UniProt P22455
Test: FGFR Enzymatic Assay (FRET peptide phosphorylation), FGFR4
pIC50: −log10 of the molar value.

Consider the compound shown here: `COc1cc2[nH]nc(-c3cnn(Cc4ccncc4)c3)c2nc1-c1cccc2c1CCC2` What is its recorded pIC50?
7.00 to 7.40

Similarly, `COc1cc2[nH]nc(-c3cnn(C4CCN(C(=O)N(C)C)CC4)c3)c2nc1-c1cccc2c1CCC2` ?
< 7.00

Similarly, `Cc1cccc(-c2nc3c(-c4cnn(C)c4)n[nH]c3cc2CO)c1C` ?
< 7.00

Similarly, `Cc1cc2[nH]nc(-c3cnn(C)c3)c2nc1-c1cccc(C)c1C` ?
< 7.00

Similarly, `COc1cc2[nH]nc(-c3cnn(C4CN(S(C)(=O)=O)C4)c3)c2nc1-c1cccc2c1CCC2` ?
< 7.00

Similarly, `COc1cc2[nH]nc(-c3cnn(CCC#N)c3)c2nc1-c1cccc2c1CCC2` ?
7.00 to 7.40

Similarly, `COc1cc2[nH]nc(-c3cnn(C4CN(C(=O)C(C)(C)N(C)C)C4)c3)c2nc1-c1cccc2c1CCC2` ?
7.00 to 7.40

Similarly, `COc1cc2[nH]nc(-c3cnn(C4CN(C(=O)[C@@H]5CCN5C(C)C)C4)c3)c2nc1-c1cccc2c1CCC2` ?
7.00 to 7.40

Similarly, `COc1cc2[nH]nc(-c3ccc(N4CCN(C(C)C)CC4)cc3)c2nc1-c1cccc2c1CCC2` ?
< 7.00

Similarly, `COc1cc2[nH]nc(-c3ccc(CN4C[C@H]5C[C@@H]4CO5)nc3)c2nc1-c1cccc2c1CCC2` ?
7.00 to 7.40

Similarly, `COc1cc2[nH]nc(-c3cnn(C4CN(C(=O)[C@H]5C[C@@H](OC)C5)C4)c3)c2nc1-c1cccc2c1CCC2` ?
7.00 to 7.40

Similarly, `COc1cc2[nH]nc(-c3cnn([C@H]4CCN(C(=O)[C@H]5COCCN5C)C4)c3)c2nc1-c1cccc2c1CCC2` ?
7.00 to 7.40

Similarly, [2H]C1(O)Cc2cccc(-c3nc4c(-c5cnn(C)c5)n[nH]c4cc3OC)c2C1 (single isomer, unassigned) ?
< 7.00

Similarly, `COc1cc2[nH]nc(-c3cnn(C)c3)c2nc1-c1cccc(C)c1C` ?
< 7.00

Similarly, `CCN1CCN(c2ccc(-c3n[nH]c4cc(OC)c(-c5cccc6c5CCC6)nc34)cc2)CC1` ?
7.00 to 7.40

Similarly, COc1cc2[nH]nc(-c3ccc(C(C)N4CCOCC4)nc3)c2nc1-c1cccc2c1CCC2 (stereo not shown) ?
< 7.00
